# GI50 annotations
System: OVCAR-4
Experiment: NCI tumour cell line growth inhibition, 48 h
Activity calls are given as the source filed them. No stated cut-off is given here; in the data, active = GI50 up to about 1.1 µM and inactive = higher.
MEASURED_METRIC: GI50

>>> print(df.to_string())
                                   compound  measured_metric           assay_value
0         CCc1n[nH]c(=O)n1NC(=O)/C=C\C(=O)O             GI50   > 100 µM (inactive)
1  O=C(O)CCC(NC(=O)c1ccc(Nc2nc3ccccc3nc2-c2cccs2)cc1)C(=O)O (centres undefined)             GI50   > 100 µM (inactive)
2  COc1cc2c(cc1O)Cc1c-2[n+](C)cc2cc(OC)c(OC)cc12             GI50  > 63.2 µM (inactive)
3  C=CCC1(O)c2cccc(O)c2C(=O)c2cccc(O)c21 (centres undefined)             GI50    29.2 µM (inactive)

====

Tested on: SK-MEL-2
Test: NCI tumour cell line growth inhibition, 48 h
Calls of active or inactive are those of the source. Rule as the data show it: active = GI50 up to about 1.1 µM and inactive = higher.
MEASURED_METRIC: GI50

                                   compound  test_target          assay_value
0                      O=C1C=CC(=O)C1(Br)Br     SK-MEL-2   12.5 µM (inactive)
1  CCN(CC)C(=O)c1c(N2CCOCC2)cc(N(CC)CC)oc1=O     SK-MEL-2  > 100 µM (inactive)
2           C/C(=N\NC(N)=S)c1nc2cccnc2[nH]1     SK-MEL-2  > 100 µM (inactive)
3  O=C1Nc2ccccc2/C1=N/NC(=S)Nc1ccc([N+](=O)[O-])cc1     SK-MEL-2   4.25 µM (inactive)
4  Clc1ccc(C[P+]2(c3ccccc3)CCCCC2)cc1.[O-][Cl+3]([O-])([O-])[O-]     SK-MEL-2   48.6 µM (inactive)
5  Cc1ccc(NC(=O)/C(CC2Nc3c(ccc4c3C(=O)c3ccccc3C4=O)NC2O)=N/NC(C)(C)C)cc1 (configuration not stated)     SK-MEL-2   18.9 µM (inactive)
6  O=C(CSc1nnc(-c2ccc(/N=C\c3ccc(Cl)cc3)cc2)o1)Nc1cccc([N+](=O)[O-])c1     SK-MEL-2  > 100 µM (inactive)

====

System: SK-MEL-2
Assay: NCI tumour cell line growth inhibition, 48 h
The source made the active and inactive calls. Cut-off read from the data, not from the text of the source: active = GI50 up to about 1.1 µM and inactive = higher.
Classes used: true for active, false for inactive

COMPOUND	TEST_TARGET	LABEL_CLASS
N#Cc1cnn2c1n[n+]([O-])c1ccc(Cl)cc12	SK-MEL-2	false
Cc1ccc(C(=O)/C=C2/Nc3ccc([N+](=O)[O-])cc3N/C2=C/C(=O)c2ccc(C)cc2)cc1	SK-MEL-2	false
CC(C)(C)C1CCC2c3c([nH]c4ccccc34)C3C(=O)N(c4ccc([N+](=O)[O-])cc4)C(=O)C3C2C1 (centres undefined)	SK-MEL-2	false
CC(=O)c1cccc(NC(=O)C(=O)C(C(=O)NN)c2ccccc2)c1 (centres undefined)	SK-MEL-2	false
C=CCOC(=O)N1c2ccc(O)cc2[C@@]23O[C@@]24[C@@H]1C#C/C=C\C#C[C@]3(O)C(=O)C[C@@H]4C	SK-MEL-2	false
CCOc1ccc2c(ccc(/C=C/c3cc(C)c4cccnc4c3O)[n+]2C)c1	SK-MEL-2	true
CCCc1c[nH]c(-c2ccc(-c3cc(CCC)c(C=O)[nH]3)s2)c1	SK-MEL-2	false
COc1ccc2[nH]c(C(=O)N3CC(CCl)c4ccc([N+](=O)[O-])cc43)cc2c1 (centres undefined)	SK-MEL-2	false
C[C@@H]1C[C@@]2(O[C@@H]2C)C(=O)O[C@@H]2CCN3CC=C(COC(=O)[C@]1(C)O)[C@H]23	SK-MEL-2	false
CCOC(=O)C(C(C)=O)C1CC=CC1 (centres undefined)	SK-MEL-2	false
COc1ccc2nc(NC(=O)/C(C#N)=C/c3ccccc3)sc2c1	SK-MEL-2	false
CC#CC(O)(C(=O)OCCCN(C)C)C1CCCCC1 (centres undefined)	SK-MEL-2	false
CC(C)(C)CC(C)(C)N/C(N)=N/O	SK-MEL-2	false
O=C(O)CC1C(=O)OC2C3COC(=O)c4cc(O)c(O)c(O)c4-c4c(cc(O)c(O)c4O)C(=O)OC2C(OC(=O)c2cc(O)c(O)c4c2C1C(O)C(=O)O4)C(OC(=O)c1cc(O)c(O)c(O)c1)O3 (centres undefined)	SK-MEL-2	false
